The measurements presented in this section are drawn from patent US9321808B2.

Test system: MDA-MB-231 (breast epithelial adenocarcinoma)
Experiment Summary: Standalone cytotoxicity, MTT assay, MDA-MB-231
Format: cell-based, human
Condition Label: Homo sapiens, MDA-MB-231, 96 hours treatment, reported as activity range, read-out: MDA-MB-231 IC50 (μM ± standard Deviation)
Consider the following compounds and their measured IC50 readings.

Which IC50 value is on record for CC[C@H](NC)C(=O)N[C@@H]1C(=O)N2[C@@H](CC[C@@H]1CO)CC[C@H]2C(=O)N[C@@H](c1ccccc1)c1cn(CCCCc2ccc(CCCCn3cc([C@@H](NC(=O)[C@@H]4CC[C@@H]5CC[C@H](CO)[C@H](NC(=O)[C@H](CC)NC)C(=O)N54)c4ccccc4)nn3)cc2)nn1 [Compound 28a] ? < 1 µM

Here is another compound to look at.
Given the entry CC[C@H](NC)C(=O)N[C@@H]1C(=O)N2[C@@H](CC[C@@H]1CO)CC[C@H]2C(=O)N[C@H](C(=O)NCCCCNc1c(NCCCCNC(=O)[C@@H](NC(=O)[C@@H]2CC[C@@H]3CC[C@H](CO)[C@H](NC(=O)[C@H](CC)NC)C(=O)N32)c2ccccc2)c(=O)c1=O)c1ccccc1 [Compound 30b] , report its measured IC50. 10 to 50 µM

====

Item-by-item account of IC50
System Name: cIAP2-BIR3 (Homo sapiens, UniProt Q13489)
Construct: 6xHis (C); made in house; host or cells: Escherichia coli BL21(DE3)
Sequence (Q13489 237-349): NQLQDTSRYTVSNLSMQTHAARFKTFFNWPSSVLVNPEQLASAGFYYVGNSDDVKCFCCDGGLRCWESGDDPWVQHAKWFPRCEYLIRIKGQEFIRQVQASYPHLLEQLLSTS
Experiment Summary: Fluorescence polarization binding, cIAP2 BIR3
Condition Label: displacement of fluorescent probe (2 nM) from cIAP2 (25 nM); average of three independent measurements; read-out: cIAP2 IC50(av)
Record the value in nM, omitting the unit from your answer.

Worked examples follow.
Entry CC[C@H](NC)C(=O)N[C@@H]1C(=O)N2[C@@H](CC[C@@H]1CO)CC[C@H]2C(=O)N[C@H](C(=O)NCCCCNc1c(NCCCCNC(=O)[C@@H](NC(=O)[C@@H]2CC[C@@H]3CC[C@H](CO)[C@H](NC(=O)[C@H](CC)NC)C(=O)N32)c2ccccc2)c(=O)c1=O)c1ccccc1 [Compound 30b] , system cIAP2-BIR3 (Homo sapiens, UniProt Q13489): what IC50 was measured? 2.9

Requested read-out IC50, target or system cIAP2-BIR3 (Homo sapiens, UniProt Q13489), entry CC[C@H](NC)C(=O)N[C@@H]1C(=O)N2[C@@H](CC[C@@H]1CNC(=O)COCC(=O)NCCOCCOCCOCCNC(=O)[C@@H](NC(=O)[C@@H]1CC[C@@H]3CC[C@H](CO)[C@H](NC(=O)[C@H](CC)NC)C(=O)N31)c1ccccc1)CC[C@H]2C(=O)NC(c1ccccc1)c1ccccc1 [Compound 36a] 0.2

Recall the recorded IC50 for CC[C@H](NC)C(=O)N[C@@H]1C(=O)N2[C@@H](CC[C@@H]1CNC(=O)CCc1cn(CCOCCOCCOCCNC(=O)[C@@H](NC(=O)[C@@H]3CC[C@@H]4CC[C@H](CO)[C@H](NC(=O)[C@H](CC)NC)C(=O)N43)c3ccccc3)nn1)CC[C@H]2C(=O)NC(c1ccccc1)c1ccccc1 [Compound 34a] with cIAP2-BIR3 (Homo sapiens, UniProt Q13489) and state it. 0.3

***
Report IC50 for CC[C@H](NC)C(=O)N[C@@H]1C(=O)N2[C@@H](CC[C@@H]1CO)CC[C@H]2C(=O)N[C@H](C(=O)NCCCOCCOCCOCCCNC(=O)[C@@H](NC(=O)[C@@H]1CC[C@@H]2CC[C@H](CO)[C@H](NC(=O)[C@H](CC)NC)C(=O)N21)c1ccccc1)c1ccccc1 [Compound 30d] tested on cIAP2-BIR3 (Homo sapiens, UniProt Q13489). 2.2

====

Below, each of the molecules is paired with its reported IC50 value.
System: MDA-MB-231 (breast epithelial adenocarcinoma)
Experiment Summary: Standalone cytotoxicity, MTT assay, MDA-MB-231
Assay type: cell-based, human
Condition Label: Homo sapiens, MDA-MB-231, 96 hours treatment, reported as activity range, read-out: MDA-MB-231 IC50 (μM ± standard Deviation)

Checklist item: IC50 tested on MDA-MB-231 (breast epithelial adenocarcinoma), entry CC[C@H](NC)C(=O)N[C@@H]1C(=O)N2[C@@H](CC[C@@H]1CNC(=O)COCC(=O)NCCOCCOCCOCCNC(=O)[C@@H](NC(=O)[C@@H]1CC[C@@H]3CC[C@H](CO)[C@H](NC(=O)[C@H](CC)NC)C(=O)N31)c1ccccc1)CC[C@H]2C(=O)NC(c1ccccc1)c1ccccc1 [Compound 36a] , value? 1 to 10 µM

Notebook entry, MDA-MB-231 (breast epithelial adenocarcinoma) assay: IC50 of CC[C@H](NC)C(=O)N[C@@H]1C(=O)N2[C@@H](CC[C@@H]1Cn1cc(CCC(=O)NCCOCCOCCOCCNC(=O)[C@@H](NC(=O)[C@@H]3CC[C@@H]4CC[C@H](CO)[C@H](NC(=O)[C@H](CC)NC)C(=O)N43)c3ccccc3)nn1)CC[C@H]2C(=O)NC(c1ccccc1)c1ccccc1 [Compound 35a] = ? 1 to 10 µM

Form field - read-out: IC50; system: MDA-MB-231 (breast epithelial adenocarcinoma); submitted item: CC[C@H](NC)C(=O)N[C@@H]1C(=O)N2[C@@H](CC[C@@H]1CNCc1ccccc1)CC[C@H]2C(=O)N[C@@H](c1ccccc1)c1cn(CCCCc2ccc(CCCCn3cc([C@@H](NC(=O)[C@@H]4CC[C@@H]5CC[C@H](CNCc6ccccc6)[C@H](NC(=O)[C@H](CC)NC)C(=O)N54)c4ccccc4)nn3)cc2)nn1 [Compound 29a] < 1 µM

Test system MDA-MB-231 (breast epithelial adenocarcinoma); read-out IC50; what value for CC[C@H](NC)C(=O)N[C@@H]1C(=O)N2[C@@H](CC[C@@H]1CO)CC[C@H]2C(=O)N[C@H](C(=O)NCCCOCCOCCOCCCNC(=O)[C@@H](NC(=O)[C@@H]1CC[C@@H]2CC[C@H](CO)[C@H](NC(=O)[C@H](CC)NC)C(=O)N21)c1ccccc1)c1ccccc1 [Compound 30d] ? 10 to 50 µM

Requested read-out IC50, target or system MDA-MB-231 (breast epithelial adenocarcinoma), entry CC[C@H](NC)C(=O)N[C@@H]1C(=O)N2[C@@H](CC[C@@H]1CO)CC[C@H]2C(=O)N[C@H](C(=O)NCCNC(=O)CCC#CC#CCCC(=O)NCCNC(=O)[C@@H](NC(=O)[C@@H]1CC[C@@H]2CC[C@H](CO)[C@H](NC(=O)[C@H](CC)NC)C(=O)N21)c1ccccc1)c1ccccc1 [Compound 30c] 10 to 50 µM

Tell me reported IC50 for CC[C@H](NC)C(=O)N[C@@H]1C(=O)N2[C@@H](CC[C@@H]1CNC(=O)CCc1cn(CCOCCOCCOCCNC(=O)[C@@H](NC(=O)[C@@H]3CC[C@@H]4CC[C@H](CO)[C@H](NC(=O)[C@H](CC)NC)C(=O)N43)c3ccccc3)nn1)CC[C@H]2C(=O)NC(c1ccccc1)c1ccccc1 [Compound 34a] , tested with MDA-MB-231 (breast epithelial adenocarcinoma). 10 to 50 µM

Moving on to the next molecule.
Quick check: IC50 on MDA-MB-231 (breast epithelial adenocarcinoma), item CC[C@H](NC)C(=O)N[C@@H]1C(=O)N2[C@@H](CC[C@@H]1CO)CC[C@H]2C(=O)N[C@H](C(=O)NCCCCCCCCNC(=O)[C@@H](NC(=O)[C@@H]1CC[C@@H]2CC[C@H](CO)[C@H](NC(=O)[C@H](CC)NC)C(=O)N21)c1ccccc1)c1ccccc1 [Compound 30a] ? < 1 µM

====

Form field: pIC50 (one value per entry).
System Name: cIAP2-BIR3 (Homo sapiens, UniProt Q13489)
Construct: 6xHis (C); made in house; host or cells: Escherichia coli BL21(DE3)
Experiment Summary: Fluorescence polarization binding, cIAP2 BIR3
Scale for pIC50: -log10 of concentration given in mol/L; no unit attached.

Quick check: pIC50 of CC[C@H](NC)C(=O)N[C@@H]1C(=O)N2[C@@H](CC[C@@H]1CO)CC[C@H]2C(=O)N[C@H](C(=O)NCCCCCCCCNC(=O)[C@@H](NC(=O)[C@@H]1CC[C@@H]2CC[C@H](CO)[C@H](NC(=O)[C@H](CC)NC)C(=O)N21)c1ccccc1)c1ccccc1 [Compound 30a] ? 8.74

Given the molecule CC[C@H](NC)C(=O)N[C@@H]1C(=O)N2[C@@H](CC[C@@H]1CNCc1ccccc1)CC[C@H]2C(=O)N[C@@H](c1ccccc1)c1cn(CCCCc2ccc(CCCCn3cc([C@@H](NC(=O)[C@@H]4CC[C@@H]5CC[C@H](CNCc6ccccc6)[C@H](NC(=O)[C@H](CC)NC)C(=O)N54)c4ccccc4)nn3)cc2)nn1 [Compound 29a] , what is its reported pIC50? 7.92

What value of pIC50 has been recorded for this entry: CC[C@H](NC)C(=O)N[C@@H]1C(=O)N2[C@@H](CC[C@@H]1Cn1cc(CCC(=O)NCCOCCOCCOCCNC(=O)[C@@H](NC(=O)[C@@H]3CC[C@@H]4CC[C@H](CO)[C@H](NC(=O)[C@H](CC)NC)C(=O)N43)c3ccccc3)nn1)CC[C@H]2C(=O)NC(c1ccccc1)c1ccccc1 [Compound 35a] 9.40

Shift focus to the following entry.
For CC[C@H](NC)C(=O)N[C@@H]1C(=O)N2[C@@H](CC[C@@H]1CO)CC[C@H]2C(=O)N[C@@H](c1ccccc1)c1cn(CCCCc2ccc(CCCCn3cc([C@@H](NC(=O)[C@@H]4CC[C@@H]5CC[C@H](CO)[C@H](NC(=O)[C@H](CC)NC)C(=O)N54)c4ccccc4)nn3)cc2)nn1 [Compound 28a] , what is its reported pIC50? 8.60
